I'd be grateful if you could share measured LD50 for these entries.
Test: Median lethal dose (LD50) determination
Type: in vivo, Kunming mice
Details: both sexes, Kunming, mouse, in vivo, sc; subcutaneous, survival within 24 h, Probit regression
Give bare numbers, in mg/kg.

[[record]]
compound = "CCN1C[C@]2(OC(=O)c3ccccc3NC(=O)c3ccc(OC(C)C)cc3)CC[C@H](OC)[C@]34C1[C@H](CC23)[C@@]1(O)C[C@H](OC)[C@H]2CC4[C@]1(O)[C@H]2OC (stereo partly drawn)"
value_observed = 196

[[record]]
compound = "CCOc1ccc(C(=O)Nc2ccccc2C(=O)O[C@@]23CC[C@H](OC)C45C2CC([C@H]4N(CC)C3)[C@@]2(O)C[C@H](OC)[C@H]3CC5[C@]2(O)[C@H]3OC)cc1 (stereo partly drawn)"
value_observed = 315

[[record]]
compound = "CCN(CC)c1ccc(C(=O)Nc2ccccc2C(=O)O[C@@]23CC[C@H](OC)C45C2CC([C@H]4N(CC)C3)[C@@]2(O)C[C@H](OC)[C@H]3CC5[C@]2(O)[C@H]3OC)cc1 (stereo partly drawn)"
value_observed = 276


For each of the compounds below, state LD50.
1. CCN1C[C@]2(OC(=O)c3ccccc3NC(=O)OC)CC[C@H](OC)C34C2CC([C@@H]13)[C@@]1(O)C[C@H](OC)[C@H]2CC4[C@]1(O)[C@H]2OC (stereo partly drawn)
2. CCN1C[C@]2(OC(=O)c3ccccc3NC(=O)c3ccc(OC)cc3)CC[C@H](OC)C34C2CC([C@@H]13)[C@@]1(O)C[C@H](OC)[C@H]2CC4[C@]1(O)[C@H]2OC (stereo partly drawn)

10
296

----------
I'd be grateful if you could share measured LD50 for these entries.
Assay: Median lethal dose (LD50) determination
Assay type: in vivo, Kunming mice
Conditions: both sexes, Kunming, mouse, in vivo, sc; subcutaneous, survival within 24 h, Probit regression
Numbers only, in mg/kg.

[[record]]
compound = "CCN1C[C@]2(OC(=O)c3ccccc3NC(=O)c3ccc(N(C)C)cc3)CC[C@H](OC)C34C2CC([C@@H]13)[C@@]1(O)C[C@H](OC)[C@H]2CC4[C@]1(O)[C@H]2OC (stereo partly drawn) [Compound 5]"
value_observed = 300


The record that follows has no LD50 shown yet.
Could you share which LD50 value was measured for CCN1C[C@]2(OC(=O)c3ccccc3NS(=O)(=O)c3ccccc3OC)CC[C@H](OC)C34C2CC([C@@H]13)[C@@]1(O)C[C@H](OC)[C@H]2CC4[C@]1(O)[C@H]2OC (stereo partly drawn) [Compound 2] ? 300

----------
I'd be grateful if you could share measured inhibition in vivo at 3.5 mg/kg for these entries.
System: Kunming mice
Assay: Analgesic activity by acetic acid-induced writhing method
Type: in vivo
Settings: Mus musculus, sc; Dosing concentration 3.5 mg/kg, subcutaneous, 15 min before i.p. 0.7% acetic acid; writhing inhibition vs blank group; read-out: Analgesia rate ± SEM (%)
Numbers only, in %.

Please review the following examples before continuing.
[[record]]
molecule = "CCN1C[C@]2(OC(=O)c3ccccc3NS(=O)(=O)c3ccc(F)cc3)CC[C@H](OC)C34C2CC([C@@H]13)[C@@]1(O)C[C@H](OC)[C@H]2CC4[C@]1(O)[C@H]2OC (stereo partly shown)"
observation_type = "inhibition in vivo at 3.5 mg/kg"
value_observed = 14.7

[[record]]
molecule = "CCN1C[C@]2(OC(=O)c3ccccc3NS(=O)(=O)c3ccc(OC)cc3)CC[C@H](OC)[C@@]34C2CC([C@@H]13)[C@@]1(O)C[C@H](OC)[C@H]2CC4[C@]1(O)[C@H]2OC (stereo partly shown)"
observation_type = "inhibition in vivo at 3.5 mg/kg"
value_observed = 16.8

[[record]]
molecule = "CCN1C[C@]2(OC(=O)c3ccccc3NS(=O)(=O)c3ccc(C)cc3)CC[C@H](OC)[C@@]34C2CC([C@@H]13)[C@@]1(O)C[C@H](OC)[C@H]2CC4[C@]1(O)[C@H]2OC (stereo partly shown)"
observation_type = "inhibition in vivo at 3.5 mg/kg"
value_observed = 27.7


The record that follows has no inhibition in vivo at 3.5 mg/kg shown yet.
Could you share which inhibition in vivo at 3.5 mg/kg value was measured for CCN1C[C@]2(OC(=O)c3ccccc3NS(=O)(=O)c3cccc(OC)c3)CC[C@H](OC)[C@@]34C2CC([C@@H]13)[C@@]1(O)C[C@H](OC)[C@H]2CC4[C@]1(O)[C@H]2OC (stereo partly shown) ? 37.1
